Target: T1, 5-5-1 (Homo sapiens, UniProt O00501, A162Q/K157R/L160F/Q156A/S151M/S155N/V152T)
T1 construct: expressed in transfected cells; host or cells: retrovirus-infected cells (pCX4pur)
T1 sequence (O00501 1-218 S151M/V152T/S155N/Q156A/K157R/L160F/A162Q): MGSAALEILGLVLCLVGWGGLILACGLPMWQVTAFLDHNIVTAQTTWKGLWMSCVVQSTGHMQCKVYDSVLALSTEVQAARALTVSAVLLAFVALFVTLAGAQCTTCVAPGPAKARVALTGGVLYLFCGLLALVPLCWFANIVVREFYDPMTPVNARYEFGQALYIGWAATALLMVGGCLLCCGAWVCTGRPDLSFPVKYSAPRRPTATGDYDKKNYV
Experiment: Epitope analysis FACS, chimeric protein 5-5-1
Assay type: binding
Conditions: antibody concentration 5 μg/mL; second extracellular loop substituted with hCLDN-1

Molecule	recognition of 5-5-1
R14: rat anti-CLDN-5 monoclonal antibody, IgG2a/K; VH SEQ ID NO: 21, VL SEQ ID NO: 22; example of antibody K (antibody, V domains shown, R14 VH; R14 VL) VH: QVTLKESGPGILQPSHTLSLTCSFSGFSLSTYGMGVSWIRQPSGKGLEWLASIWWNGRTYTNPSLMSRLTVSKDTSTNQAFLRVTSVETADTATYYCAHTPYDYSNLGWFTYWGQGTLVTVSS VL: DILMTQTPSSQAVSAGEKVTVSCKSSQSLLYSGDQKSYLAWYQQKPGQSPKLLIYLASTRKSGVPDRFIGSGSGTDFTLTISSVQAEDLADYYCQQHYTYPLTFGSGTKLEI	incapable of recognizing
M11: mouse anti-CLDN-5 monoclonal antibody, IgG2b/K; VH SEQ ID NO: 3, VL SEQ ID NO: 4; example of antibody B (antibody, V domains shown, M11 VH; M11 VL) VH: QVQLKQSGPGLVQPSQSLSITCTVSGFSLIRYGVHWVRQSPGKGLEWLGVKWSGGSTDYNGAFKSRLSISKDNSKSQVFFKMNSLQADDTAIYYCARGLDGYYVPDVWGTGTSVTVS VL: DIVMTQSHKFMSTSVGDRVSITCKASQDVSTNVAWYQQKPGQSPTLLIYWASTRHTGVPDRFTGSGSGTDYTLTISSVQAEDLALYYCQQHYSTPLTFGAGTKLELRR	capable of recognizing
R9: rat anti-CLDN-5 monoclonal antibody, IgG2b/K; VH SEQ ID NO: 17, VL SEQ ID NO: 18; example of antibody I (antibody, V domains shown, R9 VH; R9 VL) VH: QVTLKESGPGILQPSHTLSLTCSFSGFSLNTYGVGVNWIRQPSGKGLEWLASIWWHGKTYINPSLKNRLTVSKDPSNNQAFLEVTNVDPADTATYYCAHARAQLLDYWGQGVMVTVSS VL: DIVMTQTPSSQAVSAGEKVTMSCKSSQSLLYSGDQKNYLAWYQQKPGQSPKLLIYLTSTRESGVPDRFIGSGSGTDFTLTISSVQAEDLADYYCQQHYSYPLTFGSGTKLEI	incapable of recognizing
M23: mouse anti-CLDN-5 monoclonal antibody, IgG2b/K; VH SEQ ID NO: 5, VL SEQ ID NO: 6; example of antibody C (antibody, V domains shown, M23 VH; M23 VL) VH: EVQLQQSGPVLVKPGPSVMISCKASGFTFTDYYMHWVKQSHGKSLEWIGLVYPYNGGTDYNQKFKGKATLTVDTSSSTAYMELNSLTSEDSAVYYCARCLYDGLYFYAMDYWGQGTSVTVSS VL: DIVMSQSPSSLAVSAGEKVTMTCKSSQSLLNSRARKNYLAWYQQKAGQSPKLLMYWASTRESGVPDRFTASGSGTDFTLTISSVQAEDLAVFYCKQSYNLPWTFGGGTKLEIKR	incapable of recognizing
R3: rat anti-CLDN-5 monoclonal antibody, IgG2a/K; VH SEQ ID NO: 13, VL SEQ ID NO: 14; example of antibody G (antibody, V domains shown, R3 VH; R3 VL) VH: EVQLVESGGGLVQPGRSLKLSCAASGFTFSDYYMAWVRQAPKKGLEWVASISYEGRNTYYGDSVKGRFTISRDNAKSTLYLQMKSLRSEDTATYYCTRHPRRYFDYWGQGVMVTVSS VL: DIVMTQSPSSLAVSAGETVTMNCRSSQSLFSSGDQKKFLAWYQQKPGQSPKLLISLASTRESGVPDRFIGSGSGTDFTLTINNMQAEDLAIYYCQQHYDIPYTFGAGTKLEL	incapable of recognizing
R2: rat anti-CLDN-5 monoclonal antibody, IgG2a/K; VH SEQ ID NO: 11, VL SEQ ID NO: 12; example of antibody F (antibody, V domains shown, R2 VH; R2 VL) VH: QVQLKESGPGLVQPSQTLSLTCTVSGLSLIRNSVSWIRQPPGKGLEWMGVIWSNGGTEYNSTVKSRLSISRDTSKNQVFLKMNSLQTEDSAMFFCARTPDGYYPYFDYWGQGVMVTVSS VL: DIVLTQSPATLSVTPGESVSLSCRASQGISTSIHWYQQKSNESPRLLIRYASQSISRIPSRFSGSGSGTDFTLTINGVESEDLSVYYCQQSYNLPLTFGSGTKLEI	capable of recognizing
M48: mouse anti-CLDN-5 monoclonal antibody, IgG3/K; VH SEQ ID NO: 9, VL SEQ ID NO: 10; example of antibody E (antibody, V domains shown, M48 VH; M48 VL) VH: QAYLQQSGAELVRPGASVKMSCKASGYTFTSYNMHWVKKTRRQGLEWIGAISPGNGNTSYNQKFKGKATLTVDKSSSTAYMQLSSLTSEDSAVYFCARDDGYYGALDYWGQGTSVTVSS VL: DIVLTQSPATLSVTPGESVSLSCRASQGISTSIHWYQQKSNESPRLLIRYASQSISRIPSRFSGSGSGTDFTLTINGVESEDLSVYYCQQSYNLPLTFGSGTKLEI	incapable of recognizing
